# Tested on: RARg homodimer (NR concentration 270 nM)
# assay protocol: PBM binding z-score (relative to random genomic background probes); higher = stronger binding; sequences stand for … in GC…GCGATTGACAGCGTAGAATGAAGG

# seq text, PBM binding z-score
records = [
    ("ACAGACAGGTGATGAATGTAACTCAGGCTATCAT", 0.506),
    ("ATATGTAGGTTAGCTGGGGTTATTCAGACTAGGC", 0.961),
    ("ACTATTAGTTGAGACGAGCGCAACCGATAGGTTG", 0.138),
    ("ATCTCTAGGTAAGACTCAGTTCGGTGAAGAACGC", 0.192),
    ("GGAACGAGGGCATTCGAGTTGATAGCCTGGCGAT", 1.41),
    ("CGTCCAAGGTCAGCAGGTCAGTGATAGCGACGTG", 7.22),
    ("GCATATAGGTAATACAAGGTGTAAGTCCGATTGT", 0.241),
    ("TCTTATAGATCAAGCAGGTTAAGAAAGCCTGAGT", 0.136),
    ("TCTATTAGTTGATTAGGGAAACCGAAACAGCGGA", 0.329),
    ("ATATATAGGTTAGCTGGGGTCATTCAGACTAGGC", 3.4),
    ("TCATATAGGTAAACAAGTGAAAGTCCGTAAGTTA", 0.548),
    ("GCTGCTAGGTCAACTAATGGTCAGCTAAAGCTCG", 5.52),
]

###

# Tested on: PPARg DBDmut IVT, anti-PPARg (DBD mutation: PPARg1 K132A/R137A, NR concentration 270 nM)
# assay protocol: PBM binding z-score (relative to random genomic background probes); higher = stronger binding; sequences stand for … in GC…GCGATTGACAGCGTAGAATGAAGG
Listed here are sequences together with their documented PBM binding z-score.

# seq text, system under test, PBM binding z-score
measured = [
    ("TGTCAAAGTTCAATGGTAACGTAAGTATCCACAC", "PPARg DBDmut IVT, anti-PPARg (DBD mutation: PPARg1 K132A/R137A, NR concentration 270 nM)", 1.61),
    ("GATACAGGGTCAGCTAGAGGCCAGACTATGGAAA", "PPARg DBDmut IVT, anti-PPARg (DBD mutation: PPARg1 K132A/R137A, NR concentration 270 nM)", 0.0438),
    ("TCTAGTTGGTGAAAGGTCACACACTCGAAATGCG", "PPARg DBDmut IVT, anti-PPARg (DBD mutation: PPARg1 K132A/R137A, NR concentration 270 nM)", 2.05),
    ("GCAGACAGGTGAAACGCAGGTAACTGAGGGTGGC", "PPARg DBDmut IVT, anti-PPARg (DBD mutation: PPARg1 K132A/R137A, NR concentration 270 nM)", -0.375),
]

###

# Tested on: FXR:RXRa (NR concentration 270 nM, RXRa partner concentration 90 nM)
# assay protocol: PBM binding z-score (relative to random genomic background probes); higher = stronger binding; sequences stand for … in GC…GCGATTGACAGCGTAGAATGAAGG

# seq text, PBM binding z-score
data = [
    ("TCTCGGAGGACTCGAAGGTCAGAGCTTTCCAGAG", 0.838),
    ("ACAGACAGGTGATGAAGGTATCTCAGGCTATCAT", -0.127),
    ("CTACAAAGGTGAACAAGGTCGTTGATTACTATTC", 2.91),
    ("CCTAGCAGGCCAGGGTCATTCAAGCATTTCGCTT", 2.69),
    ("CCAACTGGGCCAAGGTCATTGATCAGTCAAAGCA", 2.96),
    ("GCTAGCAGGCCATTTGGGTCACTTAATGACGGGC", 0.0717),
    ("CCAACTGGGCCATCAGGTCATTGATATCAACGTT", 1.54),
    ("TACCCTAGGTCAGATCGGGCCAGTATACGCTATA", 2.3),
    ("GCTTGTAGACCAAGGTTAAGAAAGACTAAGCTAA", -0.248),
    ("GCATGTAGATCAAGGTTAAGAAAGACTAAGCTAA", 0.0428),
    ("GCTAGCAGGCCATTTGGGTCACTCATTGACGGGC", 0.033),
    ("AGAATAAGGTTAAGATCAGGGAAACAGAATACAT", 2.47),
    ("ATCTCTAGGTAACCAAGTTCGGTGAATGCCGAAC", 0.162),
    ("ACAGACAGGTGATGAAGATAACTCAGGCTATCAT", -0.21),
    ("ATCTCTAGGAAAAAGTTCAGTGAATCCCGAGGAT", 0.0166),
    ("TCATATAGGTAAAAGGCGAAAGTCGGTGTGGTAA", 0.336),
    ("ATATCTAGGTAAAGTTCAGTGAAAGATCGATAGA", 1.18),
    ("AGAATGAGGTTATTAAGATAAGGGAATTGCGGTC", 1.33),
    ("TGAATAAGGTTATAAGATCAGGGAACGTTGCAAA", 1.45),
    ("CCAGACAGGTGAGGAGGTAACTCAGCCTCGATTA", -0.0226),
]

###

# Test system: RARg:RXRa (NR concentration 270 nM, RXRa partner concentration 90 nM)
# assay protocol: PBM binding z-score (relative to random genomic background probes); higher = stronger binding; sequences stand for … in GC…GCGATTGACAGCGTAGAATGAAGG

# seq text, PBM binding z-score
records = [
    ("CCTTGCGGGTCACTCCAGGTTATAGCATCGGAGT", 3.99),
    ("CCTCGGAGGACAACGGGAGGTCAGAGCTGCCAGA", 3.93),
    ("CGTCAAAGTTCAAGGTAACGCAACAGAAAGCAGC", 5.16),
    ("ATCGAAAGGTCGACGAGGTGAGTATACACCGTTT", 4.03),
    ("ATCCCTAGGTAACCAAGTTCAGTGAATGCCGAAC", 0.484),
    ("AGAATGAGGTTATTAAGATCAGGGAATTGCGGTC", 1.17),
    ("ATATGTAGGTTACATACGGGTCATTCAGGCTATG", 4.44),
    ("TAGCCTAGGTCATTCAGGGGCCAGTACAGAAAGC", 5.87),
    ("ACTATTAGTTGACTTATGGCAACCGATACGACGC", 0.814),
    ("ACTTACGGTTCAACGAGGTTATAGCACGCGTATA", 2.25),
    ("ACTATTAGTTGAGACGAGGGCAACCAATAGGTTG", 0.956),
    ("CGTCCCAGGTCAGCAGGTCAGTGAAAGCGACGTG", 4.83),
    ("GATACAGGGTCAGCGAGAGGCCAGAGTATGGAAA", 6.57),
    ("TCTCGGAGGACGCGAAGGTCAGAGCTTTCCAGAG", 2.26),
    ("CCTTACGCGTCAAGGTTATAGCACGGGTGGTACG", 0.576),
    ("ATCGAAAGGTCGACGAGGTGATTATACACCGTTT", 4.21),
    ("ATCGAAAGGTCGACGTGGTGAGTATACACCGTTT", 4.04),
    ("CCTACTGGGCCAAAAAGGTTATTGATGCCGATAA", 0.788),
    ("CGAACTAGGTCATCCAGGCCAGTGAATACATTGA", 4),
    ("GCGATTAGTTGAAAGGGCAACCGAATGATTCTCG", 1.14),
    ("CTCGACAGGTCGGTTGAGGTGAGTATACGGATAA", 0.769),
    ("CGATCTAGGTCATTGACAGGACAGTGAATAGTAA", 4.48),
    ("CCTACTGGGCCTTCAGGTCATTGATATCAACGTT", 1.13),
    ("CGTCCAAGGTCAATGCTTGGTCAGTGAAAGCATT", 6.01),
    ("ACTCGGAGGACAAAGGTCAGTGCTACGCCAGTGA", 5.37),
    ("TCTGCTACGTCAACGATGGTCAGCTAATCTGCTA", -0.316),
    ("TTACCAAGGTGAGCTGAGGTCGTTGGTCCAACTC", 1.2),
    ("GTACCAAGGTAAATAGGTCGTTGATGAGTAGGCG", 0.808),
    ("GGAGCGAGGGCAAAGTTGATAGCATCTGTCGACG", 1.71),
    ("AGTCAAAGTTCAGGACGAGGTAACGCAAAGCACG", 4.76),
    ("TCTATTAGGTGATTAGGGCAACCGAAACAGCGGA", 1.09),
    ("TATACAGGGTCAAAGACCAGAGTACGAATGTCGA", 5.15),
    ("TCTAGTTGGTCAAAGGTCACAAACTCGAAATGCG", 6.76),
    ("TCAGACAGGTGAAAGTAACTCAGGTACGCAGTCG", 0.474),
]
